# assayed-target: GPIIb/IIIa (Homo sapiens, UniProt P05106+P08514)
# Sequence (P08514 32-887 limits assumed): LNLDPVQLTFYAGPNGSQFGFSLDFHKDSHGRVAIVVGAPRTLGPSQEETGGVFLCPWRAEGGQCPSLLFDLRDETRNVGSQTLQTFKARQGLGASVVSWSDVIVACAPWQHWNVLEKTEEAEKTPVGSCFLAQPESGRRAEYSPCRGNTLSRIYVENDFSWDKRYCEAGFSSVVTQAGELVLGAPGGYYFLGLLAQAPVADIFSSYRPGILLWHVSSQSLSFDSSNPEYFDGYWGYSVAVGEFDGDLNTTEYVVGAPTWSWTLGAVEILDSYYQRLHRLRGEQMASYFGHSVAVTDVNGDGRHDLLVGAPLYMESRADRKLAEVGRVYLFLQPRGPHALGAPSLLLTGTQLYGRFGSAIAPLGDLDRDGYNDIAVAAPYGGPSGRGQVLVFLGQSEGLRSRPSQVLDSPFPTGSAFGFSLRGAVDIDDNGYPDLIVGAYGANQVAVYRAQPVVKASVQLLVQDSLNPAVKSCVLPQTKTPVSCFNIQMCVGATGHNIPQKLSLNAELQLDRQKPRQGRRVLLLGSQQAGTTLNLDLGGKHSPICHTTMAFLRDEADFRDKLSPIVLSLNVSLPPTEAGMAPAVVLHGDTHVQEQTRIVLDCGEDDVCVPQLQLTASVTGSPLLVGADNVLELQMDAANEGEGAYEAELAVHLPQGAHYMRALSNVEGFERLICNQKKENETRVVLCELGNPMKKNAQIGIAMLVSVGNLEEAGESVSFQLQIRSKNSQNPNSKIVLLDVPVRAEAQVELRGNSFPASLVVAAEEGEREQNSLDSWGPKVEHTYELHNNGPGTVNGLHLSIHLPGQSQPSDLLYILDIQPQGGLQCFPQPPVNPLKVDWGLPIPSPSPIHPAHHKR
# Sequence (P08514 891-1039 partner limits assumed): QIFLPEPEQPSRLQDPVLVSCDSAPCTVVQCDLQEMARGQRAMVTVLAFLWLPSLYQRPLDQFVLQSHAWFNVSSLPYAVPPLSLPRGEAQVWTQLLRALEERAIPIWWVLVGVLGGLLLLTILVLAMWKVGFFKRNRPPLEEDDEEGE
# Sequence (P05106 27-788): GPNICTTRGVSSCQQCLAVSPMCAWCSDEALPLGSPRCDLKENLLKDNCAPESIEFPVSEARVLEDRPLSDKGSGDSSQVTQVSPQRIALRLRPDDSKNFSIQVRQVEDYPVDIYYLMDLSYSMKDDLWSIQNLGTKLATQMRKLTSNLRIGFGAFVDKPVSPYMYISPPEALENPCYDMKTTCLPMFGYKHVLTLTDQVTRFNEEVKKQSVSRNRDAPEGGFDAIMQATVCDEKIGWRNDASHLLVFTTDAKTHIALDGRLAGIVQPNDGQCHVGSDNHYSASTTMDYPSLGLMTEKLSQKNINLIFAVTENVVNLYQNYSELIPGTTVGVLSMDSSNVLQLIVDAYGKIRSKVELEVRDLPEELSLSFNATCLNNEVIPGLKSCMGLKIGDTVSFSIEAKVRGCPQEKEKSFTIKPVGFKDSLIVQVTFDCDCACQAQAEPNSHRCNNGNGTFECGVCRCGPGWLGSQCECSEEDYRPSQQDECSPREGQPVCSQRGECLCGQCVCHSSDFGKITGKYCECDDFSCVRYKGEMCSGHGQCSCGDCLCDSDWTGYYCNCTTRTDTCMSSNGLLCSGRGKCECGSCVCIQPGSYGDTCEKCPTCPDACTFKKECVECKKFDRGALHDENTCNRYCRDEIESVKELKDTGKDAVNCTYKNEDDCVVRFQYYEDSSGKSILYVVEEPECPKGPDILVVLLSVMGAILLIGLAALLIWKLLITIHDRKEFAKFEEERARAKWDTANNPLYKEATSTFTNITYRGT
# experiment-summary: In vitro solid phase purified glycoprotein IIb/IIIa binding assay (biotinylated fibrinogen binding)
# assay-context: read-out: Fibrinogen Binding % Inh. (50 µM)
# Method: IN VITRO SOLID PHASE PURIFIED GLYCOPROTEIN IIB/IIIA BINDING ASSAY. The plate is covered and incubated overnight at 4°C. The GPIIb/IIa solution is discarded and 150 µl of 5% BSA is added and incubated at RT for 1-3 h. The plate is washed extensively with modified Tyrodes buffer. Biotinylated fibrinogen (25 µl/well) at 2 x final concentration is added to the wells that contain the test compounds (25 µl/well). The plate is covered and incubated at RT for 2-4 h. […] The absorbance is read at 490 nm.
Each entry below carries its recorded inhibition at 50 µM.
Give a bare numeral; the unit % is implied.

C[Si](C)(C)C#CC(CC(=O)O)NC(=O)C1CCCN(C(=O)CCC2CCNCC2)C1 (stereo not drawn) [Compound 9] :: 99
O=C(NCCc1nnn[nH]1)C1CCCN(C(=O)CCC2CCNCC2)C1 (stereo not drawn) [Compound 13] :: 95

Memo: CC(CNC(=O)C1CCCN(C(=O)NCC2CCNCC2)C1)C(=O)O (stereo not drawn) [Compound 2] , reported inhibition at 50 µM: 93

Memo: COC(=O)[C@@H](CC(=O)O)NC(=O)C1CCCN(C(=O)OCC2CCNCC2)C1 (stereo partly drawn) [Compound 3] , reported inhibition at 50 µM: 81

Memo: O=C(O)CC(NC(=O)C1CCN(C(=O)CCC2CCNCC2)CC1)c1ccc(C(=O)O)cc1 (stereo not drawn) [Compound 6] , reported inhibition at 50 µM: 90.7

Where these numbers come from: patent EP1184374A1
